Test system: Human peripheral blood mononuclear cells (PBMC)
Assay: PBMC screening assay, TNF-α in supernatant
Format: cell-based
Assay context: TNF-α in supernatant of human PBMC, 24 hours, ELISA or HTRF
pEC50: −log10 of the molar value. Counter-ions that a name gives are not always drawn.
Outcome measure: pEC50

Ask | What pEC50 value was documented for this molecule, CCCN(CCC)C(=O)C1=Cc2ccc(C(=O)NCc3cccnc3)cc2N=C(N)C1 [Compound 1.3, HCl salt] ?
Reply | > 6.30

Ask | Try this molecule too: CCCN(CCC)C(=O)C1=Cc2ccc(C(=O)N[C@H](C)c3ccccc3)cc2N=C(N)C1 [Compound 1.22, trifluoroacetate salt]
Reply | > 6.30

Ask | Try this molecule too: CCCN(CCC)C(=O)C1=Cc2ccc(C(=O)Nc3ccc4c(c3)CNCC4)cc2N=C(N)C1 [Compound 1.14, trifluoroacetate salt]
Reply | > 6.30

Ask | Try this molecule too: CCCN(CCC)C(=O)C1=Cc2ccc(C(=O)Nc3ccc4c(c3)CCCC4=O)cc2N=C(N)C1 [Compound 1.5, trifluoroacetate salt]
Reply | > 6.30

Ask | Try this molecule too: CCCN(CCC)C(=O)C1=Cc2ccc(C(=O)Nc3cncc(CNC(=O)CC(N)c4ccccc4)c3)cc2N=C(N)C1 (stereo not drawn)
Reply | > 6.30

Ask | Try this molecule too: CCCN(CCC)C(=O)C1=Cc2ccc(C(=O)NCC3OB(O)c4cc(NC(=O)OCc5ccccc5)ccc43)cc2N=C(N)C1 (stereo not drawn) [Compound 1.49, TFA salt]
Reply | 6.00 to 6.30

Cited source for all entries: patent US10428045B2
